system: P388; experiment: Cytotoxicity against mouse P388 cells; format: functional, cell-based
Listed below: IC50 values for each entry.
Give a bare numeral; the unit µg/mL is implied.

// below: answered molecules
compound_structure_string: CCCCCCCC(=O)O[C@]12C=CC(=O)C[C@H]1OCC2
IC50, µg/mL: 0.3
--
compound_structure_string: CCCCCC(=O)O[C@]12C=CC(=O)C[C@H]1OCC2
IC50, µg/mL: 0.3

Could you now look at the following molecule, please?
Lookup result for `O=C1C=C[C@]2(O)CCO[C@@H]2C1` ; measured IC50: 2.1
